For each of the molecules below, state its Kb.
target: 5-hydroxytryptamine receptor 2A (Rattus norvegicus, UniProt P14842); assay: Antagonism of 5-HT2A receptor of rat tail artery; type: functional, tissue-based; details: read-out: pA2 (converted)
Sequence (P14842 whole entry): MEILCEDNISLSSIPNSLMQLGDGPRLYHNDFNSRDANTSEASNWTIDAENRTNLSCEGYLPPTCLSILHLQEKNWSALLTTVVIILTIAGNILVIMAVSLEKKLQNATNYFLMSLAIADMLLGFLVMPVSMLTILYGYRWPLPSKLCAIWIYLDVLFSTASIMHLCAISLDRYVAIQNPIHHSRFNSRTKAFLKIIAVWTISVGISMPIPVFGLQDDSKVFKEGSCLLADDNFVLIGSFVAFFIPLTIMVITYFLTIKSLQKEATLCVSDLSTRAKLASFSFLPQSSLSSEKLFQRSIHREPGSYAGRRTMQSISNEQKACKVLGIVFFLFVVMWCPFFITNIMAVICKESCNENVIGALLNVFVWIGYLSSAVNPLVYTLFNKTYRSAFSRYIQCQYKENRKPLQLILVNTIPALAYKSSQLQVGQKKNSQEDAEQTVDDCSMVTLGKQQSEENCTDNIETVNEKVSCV
The response must be a number in nM with no trailing unit.

Input line: // returns reported Kb for input Cn1c2c(c3ccccc31)C(=O)C(CN1CCN(c3ccc(F)cc3)CC1)CC2 (configuration not stated)
Output line: 2.51

Input line: Param item: O=C(c1ccc(F)cc1)C1CCNCC1
Output line: 525

Input line: What do you get for Cn1c2c(c3ccccc31)C(=O)C(CN1CC=C(c3c[nH]c4ccccc34)CC1)CC2 (configuration not stated) ?
Output line: 6.31

Input line: Same thing, different molecule: Cn1c2c(c3ccccc31)C(=O)C(CN1CCC(C(=O)c3ccc(F)cc3)CC1)CC2 (stereo in doubt; (-)-13)
Output line: 0.437

Input line: Next record, please: Cn1c2c(c3ccccc31)C(=O)C(CN1CCC(C(=O)c3ccc(F)cc3)CC1)CC2 (racemic)
Output line: 0.617

Input line: Follow-up item: Cn1c2c(c3ccccc31)C(=O)C(CN1CCC(C(=O)c3ccccc3)CC1)CC2 (configuration not stated)
Output line: 4.57

Input line: Query Cn1c2c(c3ccccc31)C(=O)C(CN1CCC(C(=O)c3ccc(F)cc3)CC1)CC2 (single isomer, unassigned; (+)) next
Output line: 64.6

Values from ChEMBL document CHEMBL1128861
